Each entry below lists one item and its recorded cell number change value.
runDescription: qHTS Assay for Lipid Storage Modulators in Drosophila S3 Cells;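 note: cells counted by Cell Tracker Red CMTPX staining in the red channel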
assayConditions: BODIPY lipid droplet fluorescence, 18-24 h, cells fed with added oleic acid; measured here: cell count max response
Description: NIH Molecular Libraries Probe Production Centers Network [MLPCN] NIH Chemical Genomics Center [NCGC] […] Triacsin C (Sigma-Aldrich T-4540), an inhibitor of long-chain fatty acyl CoA synthetase that blocks synthesis of triglycerides, was used as a positive control for lipid under-storage. […] Fluorescence was detected by excitation of the fluorophores with a 488-nm laser on an Acumen Explorer (TTP Lab Tech). […] Cells were detected using channel 3 (575-640 nm) with 5-um width and 100-um depth filters. […]
Among all 320,000 compounds or so, about 2,100 (0.66%) were called active. Roughly 53% stayed inconclusive and do not appear here. For the sample, actives were picked, then their nearest neighbours and some compounds at random.
assayEndpoint: cell number change (%)

1. NC(=O)COc1c(-c2ccccc2)oc2ccccc2c1=O: 0.203
2. O=C(Nc1ncc(Cc2cccc(Cl)c2)s1)C1CCCO1 (stereo not given): -0.923
3. Cc1nn(Cc2ccc(Cl)cc2)c(C)c1NC(=O)C(c1ccccc1)c1ccccc1: -18.5
4. COc1cccc(C(=O)Nc2nc3ccccc3[nH]2)c1: 17.8
5. CN1CCN(c2ccc(NC(=O)c3ccc(-c4cccc([N+](=O)[O-])c4)o3)cc2)CC1: 17.7
6. O=C(Nc1cccc(C(F)(F)F)c1)c1cccnc1NCCO: 17.5
7. O=C(NNc1cccc(Cl)n1)Nc1ccc(Cl)cc1: -10.7
8. CC(C)(C)n1nc2c(c1NC(=O)c1ccco1)CS(=O)C2 (stereo not given): -3.33
9. CCOC(=O)c1c(-c2ccccc2)csc1NC(=O)C1CCCO1 (stereo not given): -4.26
10. Cc1ccc(NC(=O)CN2C(=O)NC(Cc3ccccc3)C2=O)cc1 (stereo not given): 2.72
11. Cc1c(C#N)sc(C(N)=O)c1C: 10.5
12. NNC(=O)/C(=C\c1ccc(Br)cc1)NC(=O)c1cccs1: 2.9
13. CCC(=O)Nc1ccc2oc(-c3cccnc3)nc2c1: 17.6
14. Cc1cc(C)c(C#N)c(Nc2ccc(F)cc2)n1: -10.5
15. Cc1cc(C)n(-c2ccc(Cl)c(C(=O)Nc3ccc(OC(F)(F)F)cc3)n2)n1: 14.5
16. COc1cc(/C=C/C(=O)NC2CCCCC2)cc(OC)c1OC: 1.65
17. CCOC(=O)c1c(-c2ccc(F)cc2)csc1NC(=O)C1CCCO1 (stereo not given): 2.19
18. CCN(CC)c1ccc(/C=N/N2CC(=O)NC2=S)cc1: -17.5
19. CC(=O)N1CCOc2ccc(S(=O)(=O)N3CCC(C(=O)NCc4ccc(C)cc4)CC3)cc21: 17.2
20. CCCOc1ccc(N2C(=O)CC(NCc3cccs3)C2=O)cc1 (stereo not given): 15.4
21. O=C(NNC(=O)c1cccc(S(=O)(=O)N2CCN(c3ccccc3)CC2)c1)c1ccc(Cl)cc1: -1.16
22. O=c1c([N+](=O)[O-])c(N2CCOCC2)c2ccccc2n1-c1ccccc1: 8.53
23. CN(C)c1cccc(C(=O)Nc2nc3ccccc3[nH]2)c1: -3.6
24. Cc1nn(Cc2ccccc2Cl)c(C)c1NC(=O)CCCn1nc(C)c([N+](=O)[O-])c1C: -4.35
25. COc1ccc(OC)c(S(=O)(=O)Nc2ccc3oc(C)c(C(C)=O)c3c2)c1: -9.21
26. O=C(CN1CCOC1=O)N1CCCC(N2CCN(c3cccc(C(F)(F)F)c3)CC2)C1 (stereo not given): -10.2
27. Cc1sc2ncnc(SCC(=O)Nc3ccc(CN4CCCC4)cc3)c2c1C: 13.1
28. CCn1cnc2c(Nc3cc(F)cc(F)c3)nc(C#N)nc21: -24.3
29. Cc1cc(C(=O)Nc2c(C)nn(Cc3ccc(Cl)cc3)c2C)no1: -17.6
30. CC(C)(C)n1nc2c(c1NC(=O)c1ccc(Br)o1)CS(=O)C2 (stereo not given): 12.2
31. Cc1csc(NC(=O)c2ccc3ccccc3n2)n1: 7.3
32. COc1ccc(C(=O)NC(C)C2CC3CCC2C3)c(OC)c1 (stereo not given): 14.1
33. Cc1ccc(Cc2cnc(NC(=O)C3CCCO3)s2)cc1 (stereo not given): 15.9
34. O=[N+]([O-])c1cccc(-c2ccc(C(=S)N3CCOCC3)o2)c1: 15.8
35. Cc1nn(Cc2ccccc2)c(C)c1NC(=O)CCCn1nc([N+](=O)[O-])c(Cl)c1C: -5.3
36. CS(=O)(=O)c1cccc(C(=O)Nc2ccc(-c3nc4ccccc4[nH]3)cc2)c1: 86.3
37. COc1ccc(S(=O)(=O)NCC(=O)NCc2cc(=O)n(C)c(=O)n2C)cc1C: 10.1
38. CCc1cccc(NC(=O)CCCN2C(=O)C(c3ccccc3)Oc3cccnc32)c1 (stereo not given): 12
39. Cc1nn(Cc2ccc(Cl)cc2)c(C)c1NC(=O)CCCn1nc(C)c([N+](=O)[O-])c1C: 3.25
40. CCN(CC)C(=O)Oc1ccc(Cl)c2cccnc12: -13.1
41. CS(=O)(=O)c1cccc(C(=O)Nc2cccc(-c3nc4ccccc4[nH]3)c2)c1: -15
42. O=C(Nc1nc2ccccc2[nH]1)c1cccc([N+](=O)[O-])c1: -8.28
43. CC(=O)Nc1ccc(NC(=O)CSc2ncnc3sc(C)c(C)c23)cc1: 3.95
44. Cc1ccc(-c2nnn(CC(=O)N(Cc3ccco3)C(C(=O)NC(C)(C)C)c3cccs3)n2)o1 (stereo not given): -15.2
45. Cc1csc(NC(=O)c2ccccc2)n1: 23.7
